experimental.target: human TLR9 (Homo sapiens)
Sequence (Q9NR96 26-1032): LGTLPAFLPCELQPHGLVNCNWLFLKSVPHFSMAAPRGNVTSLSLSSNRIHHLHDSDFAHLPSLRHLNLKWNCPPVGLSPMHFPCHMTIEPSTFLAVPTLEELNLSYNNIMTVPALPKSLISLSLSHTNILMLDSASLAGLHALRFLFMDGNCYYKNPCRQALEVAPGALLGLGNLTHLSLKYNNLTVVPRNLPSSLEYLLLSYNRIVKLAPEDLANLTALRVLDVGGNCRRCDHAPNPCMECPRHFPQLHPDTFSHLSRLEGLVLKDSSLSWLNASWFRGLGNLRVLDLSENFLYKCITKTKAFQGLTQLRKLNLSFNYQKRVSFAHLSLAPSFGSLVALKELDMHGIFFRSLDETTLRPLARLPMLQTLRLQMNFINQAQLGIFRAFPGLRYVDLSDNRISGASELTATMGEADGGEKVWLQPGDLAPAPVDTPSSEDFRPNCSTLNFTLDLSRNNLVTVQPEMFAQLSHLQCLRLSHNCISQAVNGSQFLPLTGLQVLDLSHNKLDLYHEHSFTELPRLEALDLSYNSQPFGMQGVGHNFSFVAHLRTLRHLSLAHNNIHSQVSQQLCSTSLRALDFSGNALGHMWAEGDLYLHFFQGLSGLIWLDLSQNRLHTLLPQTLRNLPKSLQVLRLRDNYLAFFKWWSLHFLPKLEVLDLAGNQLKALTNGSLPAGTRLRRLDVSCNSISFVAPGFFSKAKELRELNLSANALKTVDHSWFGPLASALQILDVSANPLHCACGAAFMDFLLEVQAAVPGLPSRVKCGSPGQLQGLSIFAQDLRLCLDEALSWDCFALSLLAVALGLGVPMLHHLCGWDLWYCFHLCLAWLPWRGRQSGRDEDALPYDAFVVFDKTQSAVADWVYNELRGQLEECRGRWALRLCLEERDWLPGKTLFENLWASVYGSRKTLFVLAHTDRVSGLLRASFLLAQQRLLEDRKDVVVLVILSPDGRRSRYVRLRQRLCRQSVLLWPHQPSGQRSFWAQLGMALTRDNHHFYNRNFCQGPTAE
assay.remarks: TLR9 inhibition reporter assay (HEK-Blue cells, SEAP reporter, ODN2006 stimulation)
details: HEK-Blue cells overexpressing human TLR9, SEAP reporter, ODN2006 5 nM
Exercise: for every item that follows, state its recorded IC50.

Entry `Cc1cn2cc(-c3[nH]c4ccc(C5CCNCC5)cc4c3C(C)C)ccc2n1` has what IC50?
100 to 1000 nM

Now consider `Cc1nc[nH]c1CN1CCC(c2ccc3[nH]c(-c4ccnc5[nH]nc(C)c45)c(C(C)C)c3c2)CC1` .
100 to 1000 nM

Now consider `Cc1nc2c(-c3[nH]c4ccc(C5CCN(CC(=O)N(C)C)CC5)cc4c3C(C)C)ccc(C)n2n1` .
1000 to 50000 nM

Now consider `Cc1cc(-c2[nH]c3ccc(C4CCNCC4)cc3c2C(C)C)cc2ncc(O)nc12` .
100 to 1000 nM

Now consider `Cc1cc(-c2[nH]c3ccc(C4CCN(C(=O)CN(C)C(C)(C)C)CC4)cc3c2C(C)C)cn2nnnc12` .
1000 to 50000 nM

Now consider `COc1c(C)c(-c2[nH]c3ccc(C4CCN(CC(C)(C)O)CC4)cc3c2C(C)C)nn2ncnc12` .
1000 to 50000 nM

Now consider `CC(C)c1c(-c2cnc3ncccn23)[nH]c2ccc(C3CCN(CC(=O)N(C)C)CC3)cc12` .
1000 to 50000 nM

Now consider `Cc1c[nH]c2nccc(-c3[nH]c4ccc(C5CCNCC5)cc4c3C(C)C)c12` .
1000 to 50000 nM

Now consider `COc1cc(-c2[nH]c3ccc(C4CCN(CCNS(C)(=O)=O)CC4)cc3c2C(C)C)nn2ncnc12` .
1000 to 50000 nM

Now consider `Cc1cc(-c2[nH]c3ccc(C4CCN(C(=O)CCN5CC(C)(C)OC(C)(C)C5)CC4)cc3c2C(C)C)cn2nnnc12` .
1000 to 50000 nM

Now consider `COc1cc(-c2[nH]c3ccc(C4CCN(CC(=O)N(C)C)CC4)cc3c2C(C)C)nn2ncnc12` .
1000 to 50000 nM

Now consider `CN(C)CC(=O)N1CCC(c2ccc3[nH]c(-c4ccn5ccnc5c4)c(CC(F)F)c3c2)CC1` .
< 100 nM

Now consider `CNC(=O)CN1CCC(c2ccc3[nH]c(-c4cc(Cl)c5ncccc5c4)c(C(C)C)c3c2)CC1` .
1000 to 50000 nM

Now consider `CC(C)c1c(-c2ccnc3[nH]ncc23)[nH]c2ccc(C3CCN(Cc4cc(F)cnc4Cl)CC3)cc12` .
> 50000 nM

Now consider `CC(C)c1c(-c2ccnc3[nH]ncc23)[nH]c2cc(C(F)(F)F)c(C3CCNCC3)cc12` .
1000 to 50000 nM

Now consider `Cc1c(-c2ccnc3[nH]ncc23)[nH]c2ccc(C3CCNCC3)cc12` .
1000 to 50000 nM

###

experimental.target: human TLR8 (Homo sapiens)
Sequence (Q9NR97 27-1041): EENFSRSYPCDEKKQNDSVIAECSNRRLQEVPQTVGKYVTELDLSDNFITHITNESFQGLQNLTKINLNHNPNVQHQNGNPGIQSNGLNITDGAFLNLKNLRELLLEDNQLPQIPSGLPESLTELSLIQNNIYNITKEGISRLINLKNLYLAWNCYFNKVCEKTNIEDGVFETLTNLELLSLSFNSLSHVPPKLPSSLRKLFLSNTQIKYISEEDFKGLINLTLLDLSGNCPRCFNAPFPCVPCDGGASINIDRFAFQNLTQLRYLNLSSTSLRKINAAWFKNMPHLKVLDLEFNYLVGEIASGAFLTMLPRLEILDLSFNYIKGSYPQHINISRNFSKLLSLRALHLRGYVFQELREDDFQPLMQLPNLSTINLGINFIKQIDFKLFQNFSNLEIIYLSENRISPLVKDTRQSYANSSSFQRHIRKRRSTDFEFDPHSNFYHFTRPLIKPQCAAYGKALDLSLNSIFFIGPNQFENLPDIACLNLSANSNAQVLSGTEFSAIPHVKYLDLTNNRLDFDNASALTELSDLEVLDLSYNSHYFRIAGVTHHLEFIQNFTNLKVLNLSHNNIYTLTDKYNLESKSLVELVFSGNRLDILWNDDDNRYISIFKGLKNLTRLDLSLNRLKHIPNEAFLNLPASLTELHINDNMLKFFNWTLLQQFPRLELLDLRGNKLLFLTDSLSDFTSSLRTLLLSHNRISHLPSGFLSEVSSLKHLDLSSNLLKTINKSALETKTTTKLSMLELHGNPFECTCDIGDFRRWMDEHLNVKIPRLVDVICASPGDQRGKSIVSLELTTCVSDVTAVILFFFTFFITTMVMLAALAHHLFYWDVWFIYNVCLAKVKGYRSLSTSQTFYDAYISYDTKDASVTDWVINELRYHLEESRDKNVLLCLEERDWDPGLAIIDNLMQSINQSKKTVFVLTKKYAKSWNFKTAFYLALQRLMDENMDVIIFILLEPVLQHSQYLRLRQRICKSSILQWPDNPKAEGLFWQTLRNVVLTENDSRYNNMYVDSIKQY
assay.remarks: TLR8 inhibition reporter assay (HEK-Blue cells, SEAP reporter, R848 stimulation)
details: HEK-Blue cells overexpressing human TLR8, SEAP reporter, R848 15.9 μM
pIC50: −log10 of the molar value.
assay.readout: pIC50

Entry CNC(=O)CN1CCC(c2ccc3[nH]c(-c4nn5ncnc5c(C)c4C)c(C(C)C)c3c2)CC1 [Example 279] has what pIC50?
> 7.00

Now consider CCc1c(-c2ccnc3[nH]ncc23)[nH]c2ccc(C3CCN(Cc4[nH]cnc4C)CC3)cc12 [Example 916] .
6.00 to 7.00

Now consider CN1CC(C(=O)N2CCC(c3ccc4[nH]c(-c5ccc6nccn6c5)c(CC(F)F)c4c3)CC2)CC1=O (stereo not shown) [Example 644] .
4.30 to 6.00

Now consider CNCCN1CCC(c2ccc3[nH]c(-c4ccc5c(c4)OCCN5C)c(C)c3c2)CC1 [Example 673] .
< 5.51

###

experimental.target: human TLR7 (Homo sapiens)
Sequence (Q9NYK1 27-1049): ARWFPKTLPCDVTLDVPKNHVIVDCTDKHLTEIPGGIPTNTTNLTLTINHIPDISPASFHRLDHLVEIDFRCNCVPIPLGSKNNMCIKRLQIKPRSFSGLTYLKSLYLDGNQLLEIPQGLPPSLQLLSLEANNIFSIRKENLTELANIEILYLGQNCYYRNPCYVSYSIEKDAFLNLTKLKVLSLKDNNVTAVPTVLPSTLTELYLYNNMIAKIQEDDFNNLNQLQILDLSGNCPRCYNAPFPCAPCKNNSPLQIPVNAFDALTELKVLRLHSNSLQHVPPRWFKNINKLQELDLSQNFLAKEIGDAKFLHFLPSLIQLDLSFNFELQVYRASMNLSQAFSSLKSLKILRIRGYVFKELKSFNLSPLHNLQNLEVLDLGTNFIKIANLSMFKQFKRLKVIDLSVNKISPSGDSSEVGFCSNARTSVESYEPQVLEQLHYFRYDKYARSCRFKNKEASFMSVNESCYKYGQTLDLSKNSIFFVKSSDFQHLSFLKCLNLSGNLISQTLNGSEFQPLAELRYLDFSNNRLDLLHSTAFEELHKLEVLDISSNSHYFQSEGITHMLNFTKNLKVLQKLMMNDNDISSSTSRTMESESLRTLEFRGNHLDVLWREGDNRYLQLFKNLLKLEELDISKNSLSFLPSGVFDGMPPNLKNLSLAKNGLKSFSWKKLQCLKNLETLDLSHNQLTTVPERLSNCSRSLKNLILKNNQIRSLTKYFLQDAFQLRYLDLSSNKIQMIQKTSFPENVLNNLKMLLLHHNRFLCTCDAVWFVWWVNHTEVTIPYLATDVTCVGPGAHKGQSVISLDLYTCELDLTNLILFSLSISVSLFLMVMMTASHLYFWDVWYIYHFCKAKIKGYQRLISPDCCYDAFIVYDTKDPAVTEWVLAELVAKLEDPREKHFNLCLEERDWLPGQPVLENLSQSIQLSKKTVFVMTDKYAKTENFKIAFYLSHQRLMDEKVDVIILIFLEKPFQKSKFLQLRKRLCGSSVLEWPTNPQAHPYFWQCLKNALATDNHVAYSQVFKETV
assay.remarks: TLR7 inhibition reporter assay (HEK-Blue cells, SEAP reporter, gardiquimod stimulation)
details: HEK-Blue cells overexpressing human TLR7, SEAP reporter, gardiquimod 7.5 μM
Exercise: for every item that follows, state its recorded IC50.

Entry Cc1cn2cc(-c3[nH]c4ccc(C5CCN(CC(=O)N(C)C)CC5)cc4c3C(C)C)c(C)cc2n1 [Example 375] has what IC50?
< 100 nM

Now consider Cc1cc(-c2[nH]c3ccc(C4CCN(CC(=O)N(C)C)CC4)cc3c2C(C)C)cc2nccn12 [Example 354] .
100 to 1000 nM

Now consider CC(C)c1c(-c2ccc3nccn3c2)[nH]c2ccc(C3CCN(C(C)C)CC3)cc12 [Example 946] .
< 100 nM

Now consider Cc1cc(-c2[nH]c3ccc(C4CCN(C(=O)C[C@H](C)O)CC4)cc3c2C(C)C)cn2nnnc12 [Example 593] .
< 100 nM

Numbers sourced from patent US11739098B2.
